experiment: chemical genetic growth profiling, strain panel (AID 1159580);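 also: tested at 20 µM; growth read once vehicle control cultures reached saturation at 30 °C; lower values mean less growth of the strain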; conditions: S. cerevisiae deletion strains, growth OD, locus YJL187C, strain SWE1 (second series)
Among all 5,500 compounds or so, about 2,000 (36%) were called active. About 18% were inconclusive and are not listed. Rule as the data show it: active = normalized growth mostly below about 0.91 (no sharp cut-off); inconclusive = no clear call, values can overlap the other calls; inactive = mostly above about 0.92. Some of the results follow.
Tick one outcome: True = active, False = inactive

Q. Which result was noted for this compound in the test: Oc1cc(O)c2c(c1)O[C@H](c1cc(O)c(O)c(O)c1)[C@H](O)C2
A. False

Q. Which result was noted for this compound in the test: Oc1cc(O)c2c(c1)O[C@H](c1ccc(O)c(O)c1)[C@H](O)C2
A. False

Q. Which result was noted for this compound in the test: C/C=C(\C)C(=O)O[C@H]1C[C@@H](OC(C)=O)[C@@]2(C(=O)OC)CO[C@@H]3C2[C@]12CO[C@](O)(C(=O)OC)[C@H]2[C@](C)(C12O[C@@]1(C)[C@H]1C[C@@H]2OC2OC=C[C@@]21O)[C@@H]3O (some centres undefined)
A. False

Q. Which result was noted for this compound in the test: CC[C@@]1(O)C[C@H](O[C@H]2C[C@H](N(C)C)[C@H](O)[C@H](C)O2)c2c(cc3c(c2O)C(=O)c2c(O)cccc2C3=O)[C@H]1C(=O)OC
A. False

Q. Which result was noted for this compound in the test: COC(=O)C[C@H]1C2(C)CC34OC5(C)O[C@@]6([C@H](OC(C)=O)C(OC(C)=O)[C@]7(C)C(/C(=C(/O)C(C)C)C(=O)O[C@H]7c7ccoc7)[C@@]6(O5)[C@H](OC(C)=O)[C@@]3(O)C2OC(=O)C(C)C)[C@]14C (some centres undefined)
A. False

Q. Which result was noted for this compound in the test: COc1ccc(CN(CCN(C)C)c2ccccn2)cc1
A. False

Q. Which result was noted for this compound in the test: COC(=O)CC1C2(C)CC34OC5(C)OC6(C7/C(=C(/O)C(C)C)C(=O)OC(c8ccoc8)C7(C)C(OC(=O)C(C)C)C(OC)C6(O5)C13C)C(OC)C4(OC)C2OC(C)=O (centres undefined)
A. False

Q. Which result was noted for this compound in the test: O=C(OCC(O)CO)c1ccccc1Nc1ccnc2cc(Cl)ccc12 (centres undefined)
A. False

Q. Which result was noted for this compound in the test: COc1ccc(C(=O)O)cc1OC
A. False

Q. Which result was noted for this compound in the test: CCN(CC)Cc1ccc(Nc2ccnc3cc(Cl)ccc23)cc1O
A. False

Q. Which result was noted for this compound in the test: CC(C)NCC(O)COc1cccc2[nH]ccc12 (centres undefined)
A. False

Q. Which result was noted for this compound in the test: CN(C)CCN(Cc1ccccc1)c1ccccn1
A. False

Q. Which result was noted for this compound in the test: C=CCc1ccc(O)c(OC)c1
A. False

Q. Which result was noted for this compound in the test: O=C(O)c1cc2cc(F)ccc2[nH]1
A. False

Q. Which result was noted for this compound in the test: COc1cc2nc(N(C)CCCNC(=O)C3CCCO3)nc(N)c2cc1OC (centres undefined)
A. False

Q. Which result was noted for this compound in the test: COc1c(N2CCNC(C)C2)c(F)cc2c(=O)c(C(=O)O)cn(C3CC3)c12 (centres undefined)
A. False

Q. Which result was noted for this compound in the test: COC(=O)C[C@H]1C2(C)CC34OC5(C)O[C@@]6([C@H](OC)C(OC(=O)C(C)C)[C@]7(C)C(/C(=C(/OC)C(C)C)C(=O)O[C@H]7c7ccoc7)[C@@]6(O5)[C@H](OC)[C@@]3(OC)C2OC(C)=O)[C@]14C (some centres undefined)
A. False

Q. Which result was noted for this compound in the test: CNC(=O)O/N=C(\C)SC
A. False

Q. Which result was noted for this compound in the test: CC[C@H]1OC(=O)[C@H](C)[C@@H](O[C@H]2C[C@@](C)(OC)[C@@H](O)[C@H](C)O2)[C@H](C)[C@@H](O[C@@H]2O[C@H](C)C[C@H](N(C)C)[C@H]2O)[C@](C)(OC)C[C@@H](C)C(=O)[C@H](C)[C@@H](O)[C@]1(C)O
A. False

Q. Which result was noted for this compound in the test: CCC[C@H](N[C@@H](C)C(=O)N1[C@H](C(=O)O)C[C@@H]2CCCC[C@@H]21)C(=O)OCC
A. False

Q. Which result was noted for this compound in the test: O=C1C(Cl)=C(Cl)C(=O)C(Cl)=C1Cl
A. False

Q. Which result was noted for this compound in the test: Oc1cc(O)c2c(c1)O[C@H](c1ccc(O)c(O)c1)[C@@H](O)C2
A. False

Q. Which result was noted for this compound in the test: CC(=O)O[C@H]1C[C@@H](OC(C)=O)C(C)(C)C2CC(=O)[C@]3(C)C(CC[C@@]4(C)[C@H](C(=O)O)OC(=O)C5OC543)[C@]21C (some centres undefined)
A. False

Q. Which result was noted for this compound in the test: CC[C@@H](C(=O)C(C)[C@@H](O)[C@H](C)CCc1ccc(C)c(O)c1C(=O)O)C1OC(CC)(C2CC[C@](O)(CC)[C@H](C)O2)C[C@@H]1C (some centres undefined)
A. False

Q. Which result was noted for this compound in the test: C[n+]1c2cc(N)ccc2cc2ccc(N)cc21
A. True

Q. Which result was noted for this compound in the test: COC(=O)/C=C/C(C)=C/C=C/C(C)=C/C=C/C=C(C)/C=C/C=C(C)/C=C/C(=O)O
A. False

Q. Which result was noted for this compound in the test: CC[C@@]1(O)C[C@H](O[C@H]2C[C@H](N(C)C)[C@H](O)[C@H](C)O2)c2c(cc3c(c2O)C(=O)c2c(O)ccc(O)c2C3=O)[C@H]1C(=O)OC
A. True

Q. Which result was noted for this compound in the test: Cc1ccc(S(=O)(=O)NC(=O)NN2CCCCCC2)cc1
A. False

Q. Which result was noted for this compound in the test: CC1CCc2cc(F)cc3c(=O)c(C(=O)O)cn1c23 (centres undefined)
A. False

Q. Which result was noted for this compound in the test: COc1ccc(C(=O)CC(=O)O)c2c1C=CC(C)(C)O2
A. False

Q. Which result was noted for this compound in the test: Oc1ccc2c(c1)O[C@H](c1ccc(O)c(O)c1)[C@@H](O)C2
A. False

Q. Which result was noted for this compound in the test: CCC(C)C(=O)O[C@@H]1C[C@@]2(C)[C@H](c3ccoc3)OC(=O)CC23OC2(C)OC34[C@H](OC(=O)C(C)C)[C@@]3(O)[C@@H](OC(=O)C5(C)OC5C)[C@@]5(C)C[C@]3(O)[C@@](C)([C@H]5CC(=O)OC)C14O2 (some centres undefined)
A. False

Q. Which result was noted for this compound in the test: CCN(CC)C(=O)N1CCN(C)CC1
A. False

Q. Which result was noted for this compound in the test: OCC(O)CN1CCN(c2ccccc2)CC1 (centres undefined)
A. False
